target: T1, recombinant human IL-17A (human, UniProt Q16552 24-155); experiment: SPR (BIAcore T200), IL-17A coupled to CM5 chip, single-cycle kinetics
T1 construct: Bought recombinant protein (Peprotech AF-200-17); also called Peprotech AF-200-17
T1 sequence (Q16552 24-155): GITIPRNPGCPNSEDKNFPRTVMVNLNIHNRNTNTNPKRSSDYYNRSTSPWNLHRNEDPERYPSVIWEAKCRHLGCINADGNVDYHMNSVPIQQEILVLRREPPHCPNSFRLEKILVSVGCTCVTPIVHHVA
attribute-measured: Kd (nM)

Clone 3.9 (VHH, Human single VH domain) VHH: QVQLVQSGAEVKKPGASVKVSCKASGYNFDAYHINWVRQAPGQGLEWMGSIKPNSGATKYAQKFQGRVTITRDTSISTAYMELSRLRSDDTAVYYCASMDRDYYDTSGYFGWFDSWGQGTLVTVSS ... 21
VH 3.2.1 (clone 3.2 expressed from phagemid vector: with linker residues and His tag) (VHH, Human single VH domain) VHH: QVQLVQSGAEVKKPGASVKVSCKASGYNADAYYINWVRQAPGQGLEWMGSIKPNTGATKYAQKFQGRVTITRDTSISTAYMELSRLRSDDTAVYYCASLDRDTWYPHSYAGWFDAWGQGTLVTVSS ... 0.23
Clone 3.13 (VHH, Human single VH domain) VHH: QVQLVQSGAEVKKPGASVKVSCKASGYNFDAYHINWVRQAPGQGLEWMGSIKPNSGATKYAQKFQGRVTITRDTSISTAYMELSRLRSDDTAVYYCASLDRDTWYPHSYAGWFDSWGQGTLVTVSS ... 0.197
Clone 3.3 (VHH, Human single VH domain) VHH: QVQLVQSGAEVKKPGASVKVSCAASGYTFTDYYLHWVRQAPGQGLEWMGWINPNTGTTKYAREFEGRVTMTRDTSISTAYMELSRLRSDDTAVYYCASMDRDYYDTSGYFGWFDSWGQGTLVTVSS ... 29
